Target: 5-HT1A receptor (Rattus norvegicus, UniProt P19327)
Construct: Brains were rapidly removed and placed on ice; from tissue; host or cells: Sprague–Dawley rat hippocampus membranes
Sequence (P19327 whole entry): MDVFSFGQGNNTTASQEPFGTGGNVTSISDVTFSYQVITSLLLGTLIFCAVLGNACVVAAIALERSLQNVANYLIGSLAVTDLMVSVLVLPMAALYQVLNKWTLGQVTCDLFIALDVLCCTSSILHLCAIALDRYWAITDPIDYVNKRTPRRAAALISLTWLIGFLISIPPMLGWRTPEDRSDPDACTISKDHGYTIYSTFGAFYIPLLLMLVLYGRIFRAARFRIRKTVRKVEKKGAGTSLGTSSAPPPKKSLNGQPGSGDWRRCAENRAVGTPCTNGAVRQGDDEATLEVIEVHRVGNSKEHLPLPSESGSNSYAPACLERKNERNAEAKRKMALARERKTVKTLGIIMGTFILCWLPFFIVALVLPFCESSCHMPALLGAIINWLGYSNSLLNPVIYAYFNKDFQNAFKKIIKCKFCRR
Assay: 5-HT1A receptor activation in the [35S]GTP-γ-S assay (agonist and antagonist mode)
Assay type: biochemical
Conditions: agonist mode, efficacy ± SEM
Protocol: Sprague–Dawley rats were sacrificed by isoflurane overdose. Brains were rapidly removed and placed on ice. Hippocampi (for 5-HT1A assays) and frontal cortices (for 5-HT2A assays) were dissected on a Petri dish. […] Non-specific binding was determined with 100 µM of unlabeled GTPγS. […] Radioactivity was counted in a MicroBeta^2 LumiJet scintillation counter (Perkin Elmer, Waltham, MA, USA). […]
endpoint: Emax (%)

mol | Emax (%)
CC(=O)c1cc2c(C)cc(=O)oc2cc1OCCCCN1CCN(c2ccccc2F)CC1 | 139
CC(=O)c1cc2c(C)cc(=O)oc2cc1OCCCCN1CCN(c2cnccn2)CC1 | 170
CC(=O)c1cc2c(C)cc(=O)oc2cc1OCCCCN1CCN(c2cc(C)cc(C)c2)CC1 | 139
CC(=O)c1cc2c(C)cc(=O)oc2cc1OCCCCN1CCN(c2cccc(Br)c2)CC1 | 176

---

Biological target: 5-HT1A receptor (Rattus norvegicus)
Construct: Brains were rapidly removed and placed on ice; from tissue; host or cells: Sprague–Dawley rat hippocampus membranes
Test: Competitive 5-HT1A binding assay with [3H]8-OH-DPAT, rat hippocampal membranes
Conditions: 1 nM [3H]8-OH-DPAT, 95% CI in brackets, read-out: 5-HT1A Affinity Ki (nM, 95% CI)
endpoint: Ki (nM)

mol | endpoint | uom | recorded_measurement
CC(=O)c1cc2c(C)cc(=O)oc2cc1OCCCCN1CCN(c2ccccc2Cl)CC1 | Ki | nM | 0.57

A = CC(=O)c1cc2c(C)cc(=O)oc2cc1OCCCCN1CCN(c2cnccn2)CC1
B = CC(=O)c1cc2c(C)cc(=O)oc2cc1OCCCCN1CCN(c2ccccc2F)CC1
C = CC(=O)c1cc2c(C)cc(=O)oc2cc1OCCCCN1CCN(c2cc(C)ccc2C)CC1
Task field, ranking: reported Ki, descending order. To answer, arrange all of the labels according to the requested order. C, A, B
(C: 174 nM, A: 25 nM, B: 1.04 nM)

---

endpoint: melting point

Form: molecule = CC(=O)c1cc2c(C)cc(=O)oc2cc1OCCCCN1CCN(c2cccc(Br)c2)CC1 ; melting point = 109 to 110 °C

Form: molecule = CC(=O)c1cc2c(C)cc(=O)oc2cc1OCCCCN1CCN(c2cc(C)cc(C)c2)CC1 ; melting point = 101 to 102 °C

Form: molecule = CC(=O)c1cc2c(C)cc(=O)oc2cc1OCCCCN1CCN(c2ccc(Br)cc2)CC1 ; melting point = 145 to 146 °C

Form: molecule = COc1ccccc1N1CCN(CCCCOc2cc3oc(=O)cc(C)c3cc2C(C)=O)CC1 ; melting point = 126 to 127 °C

---

Molecular target: 5-HT1A receptor (Rattus norvegicus)
Construct: Brains were rapidly removed and placed on ice; from tissue; host or cells: Sprague–Dawley rat hippocampus membranes
Assay: 5-HT1A receptor activation in the [35S]GTP-γ-S assay (agonist and antagonist mode)
Assay type: biochemical
Details: agonist mode; rat hippocampal membranes; 95% CI in brackets; read-out: 5-HT1A Receptor Stimulation EC50 (nM, 95% CI)
endpoint: EC50 (nM)

Answered examples (3):
molecule | EC50 (nM)
CC(=O)c1cc2c(C)cc(=O)oc2cc1OCCCCN1CCN(c2ccccc2Cl)CC1 [Compound 7] | 49
COc1cccc(N2CCN(CCCCOc3cc4oc(=O)cc(C)c4cc3C(C)=O)CC2)c1 [Compound 2] | 181
CC(=O)c1cc2c(C)cc(=O)oc2cc1OCCCCN1CCN(c2cccc(Br)c2)CC1 [Compound 4] | 113

P = CC(=O)c1cc2c(C)cc(=O)oc2cc1OCCCCN1CCN(c2cnccn2)CC1 [Compound 15]
Q = CC(=O)c1cc2c(C)cc(=O)oc2cc1OCCCCN1CCN(c2cccc(Cl)c2Cl)CC1 [Compound 9]
R = CC(=O)c1cc2c(C)cc(=O)oc2cc1OCCCCN1CCN(c2ccccc2F)CC1 [Compound 6]
S = CC(=O)c1cc2c(C)cc(=O)oc2cc1OCCCCN1CCN(c2ccccc2C#N)CC1 [Compound 8]
T = CC(=O)c1cc2c(C)cc(=O)oc2cc1OCCCCN1CCN(c2cc(C)cc(C)c2)CC1 [Compound 10]
Task field, ranking: reported EC50, descending order. To answer, arrange all of the labels according to the requested order. P, T, Q, R, S
(P: 1300 nM, T: 475 nM, Q: 149 nM, R: 101 nM, S: 59 nM)
